- System: DIPGX29 (H3.3 K27M diffuse intrinsic pontine glioma line)
- assay method text: growth inhibition (% activity, log2 RLU normalised to DMSO / staurosporine); higher = more growth inhibition
- experimental parameters: 33 µM
measured quantity: growth inhibition (%)

- chemical smiles: "COc1ccc(-c2ccc3cc(C(=O)O)ccc3c2)cc1C12CC3CC(CC(C3)C1)C2"
  units of measure: "%"
  recorded number: 2.22
- chemical smiles: "CC[N+](CC)(CC)CCOc1cccc(OCC[N+](CC)(CC)CC)c1OCC[N+](CC)(CC)CC"
  units of measure: "%"
  recorded number: 2.95
- chemical smiles: "C[C@H](Cc1cc2c(c(C(N)=O)c1)N(CCCO)CC2)NCCOc1ccccc1OCC(F)(F)F"
  units of measure: "%"
  recorded number: 1.54
- chemical smiles: "COC(=O)[C@H](c1ccccc1Cl)N1CCc2sccc2C1"
  units of measure: "%"
  recorded number: -1.33
- chemical smiles: "CNC(=O)CN(CCN(CCN(CC(=O)[O-])CC(=O)NC)CC(=O)[O-])CC(=O)[O-].[Gd+3]"
  units of measure: "%"
  recorded number: -2.04
- chemical smiles: "COc1ccc2c(c1OC)C(=O)O[C@@H]2[C@H]1c2c(cc3c(c2OC)OCO3)CCN1C"
  units of measure: "%"
  recorded number: -0.0995
- chemical smiles: "CC(=O)NS(=O)(=O)c1ccc(NC(=O)c2ccccc2C(=O)O)cc1"
  units of measure: "%"
  recorded number: -1.87
- chemical smiles: "CC1(C)O[C@@H]2C[C@H]3[C@@H]4C[C@H](F)C5=CC(=O)C=C[C@]5(C)[C@@]4(F)[C@@H](O)C[C@]3(C)[C@]2(C(=O)CO)O1"
  units of measure: "%"
  recorded number: 5.9

====

- Test system: HNSC
- assay method text: growth inhibition (% activity, log2 RLU normalised to DMSO / staurosporine); higher = more growth inhibition
- experimental parameters: 33 µM
# growth inhibition listing for each entry below

- compound: "CCCCNC(=O)NS(=O)(=O)c1ccc(C)cc1"
  growth inhibition / %: 8.77
- compound: "O=C(O)CCCC[C@@H]1SC[C@@H]2NC(=O)N[C@@H]21"
  growth inhibition / %: -1.69
- compound: "CCOC(=O)[C@H](CCc1ccccc1)N[C@@H](C)C(=O)N1CCC[C@H]1C(=O)O"
  growth inhibition / %: 1.11
- compound: "CCOc1ccccc1OC(c1ccccc1)C1CNCCO1 (centres undefined)"
  growth inhibition / %: -1.38
- compound: "N=C(N)N/N=C/c1c(Cl)cccc1Cl"
  growth inhibition / %: 1.67
- compound: "CN/C(=N\\CCSCc1nc[nH]c1C)NC#N"
  growth inhibition / %: 0.707
- compound: "COc1ccc2c(c1)c(CC(=O)OCC(=O)O)c(C)n2C(=O)c1ccc(Cl)cc1"
  growth inhibition / %: 6.99
- compound: "COc1cccc2c1C(=O)c1c(O)c3c(c(O)c1C2=O)C[C@@](O)(C(C)=O)C[C@@H]3O[C@H]1C[C@H](N)[C@H](O)[C@H](C)O1"
  growth inhibition / %: 62.2
- compound: "Cc1cc(C(C)(C)C)c(O)c(C)c1CC1=NCCN1"
  growth inhibition / %: 0.146

Sourced from the supplement of paper PMC8253809
